Ref: patent US20160185837A1

Biological target: T1, mouse GIP receptor (mouse, UniProt Q0P543 19-460)
T1 sequence (looked up): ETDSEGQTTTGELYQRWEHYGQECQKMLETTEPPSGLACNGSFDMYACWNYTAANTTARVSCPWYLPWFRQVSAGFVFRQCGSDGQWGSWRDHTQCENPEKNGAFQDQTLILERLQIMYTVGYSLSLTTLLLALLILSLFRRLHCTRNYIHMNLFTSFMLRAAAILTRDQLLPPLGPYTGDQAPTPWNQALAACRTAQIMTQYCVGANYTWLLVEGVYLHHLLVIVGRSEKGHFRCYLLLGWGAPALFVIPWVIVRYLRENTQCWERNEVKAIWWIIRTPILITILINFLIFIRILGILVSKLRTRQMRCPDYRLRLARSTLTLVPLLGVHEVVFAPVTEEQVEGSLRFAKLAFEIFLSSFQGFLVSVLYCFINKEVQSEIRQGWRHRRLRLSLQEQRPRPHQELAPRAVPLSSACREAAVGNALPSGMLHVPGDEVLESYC
Assay: cell-based or functional assay
measured-endpoint: cAMP EC50 (nM)
A number alone suffices; assume nM.

Task item: Param item = IP326 (Fc fusion) YSEGTFTSDYSKLLEEEAVRLFIEWLLAGGGGGGGSGGGGSGGGGSGGGGSGGGGSA ; retrieve measured cAMP EC50.
Reply: 1.7

Task item: Param item = IP279 (Fc fusion) YSEGTFTSDYSKLLEEEAVRLFIEWLVKGPSSGAPPPSGGGGGSGGGGSGGGGSGGGGSATHTCPPC ; retrieve measured cAMP EC50.
Reply: 43

Task item: Param item = IP291 (Fc fusion) YSEGTFTSDYSKLLEEECVRLFIEWLVKGGPGGGAPPPGCGGGGGGGGGGGGGGGGGACPPC ; retrieve measured cAMP EC50.
Reply: 680

Task item: Param item = IP131 (Fc fusion) YSEGTFTSDYSKLLEEEAVRLFIEWLLAGGGGGGSGGGGSGGGGSGGGGSATHTCPPCPAPEF ; retrieve measured cAMP EC50.
Reply: 5.1
